Give CC50 at 72 h for every item shown.
# test protocol: Cytotoxicity assay (CellTiter Blue)
# Format: cell-based
# experimental conditions: CellTiter Blue, cells treated 72 hours

Request: Could you share which CC50 at 72 h value was measured for C=C[C@@H]1C[C@]1(NC(=O)[C@@H]1C[C@@H]2CN1C(=O)[C@H](C(C)(C)C)NC(=O)O[C@@H]1C[C@H]1CCCCCc1nc3ccc(OC)cc3nc1O2)C(=O)NS(=O)(=O)C1CC1 [Compound F5] ?
Response: 35 µM

Request: Could you share which CC50 at 72 h value was measured for COC(=O)N[C@H](C(=O)N1CCC[C@H]1c1ncc(-c2ccc(-c3cc4cc(-c5cnc([C@@H]6CCCN6C(=O)[C@@H](NC(=O)OC)C(C)C)[nH]5)ccc4o3)cc2)[nH]1)C(C)C [Compound 2] ?
Response: 9.7 µM
